Target: CDK6 (Homo sapiens)
Construct: endogenous in cells
Sequence (Q00534 whole entry): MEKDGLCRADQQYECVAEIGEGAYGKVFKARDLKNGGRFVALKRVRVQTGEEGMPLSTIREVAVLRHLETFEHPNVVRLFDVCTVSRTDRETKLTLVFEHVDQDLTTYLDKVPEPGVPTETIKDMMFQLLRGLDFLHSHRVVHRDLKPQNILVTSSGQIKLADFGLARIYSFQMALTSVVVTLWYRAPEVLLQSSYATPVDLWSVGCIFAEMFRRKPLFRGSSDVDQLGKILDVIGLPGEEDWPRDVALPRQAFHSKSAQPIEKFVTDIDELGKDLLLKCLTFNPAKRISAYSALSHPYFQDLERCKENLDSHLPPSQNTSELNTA
Assay: CDK6 degradation (DC50, Dmax)
Type: cell-based
readout_type: DC50

compound | DC50
Cc1nc2c(F)cc(-c3nc(Nc4ccc(CC5CCN(C(=O)C6CN(c7ccc(C(=O)NC8CCC(=O)NC8=O)cc7)C6)CC5)cn4)ncc3F)cc2n1C(C)C (centres unmarked) | 50 to 200 nM
CC(=O)c1c(C)c2cnc(Nc3ccc(N4CCN(C(=O)N5CCN(CCN6CCN(c7ccc8c(c7)C(=O)N(C7CCC(=O)NC7=O)C8=O)CC6)CC5)CC4)cn3)nc2n(C2CCCC2)c1=O (centres unmarked) | 50 to 200 nM
CC(=O)c1c(C)c2cnc(Nc3ccc(N4CCN(CCCCN(C)c5ccc6c(c5)C(=O)N(C5CCC(=O)NC5=O)C6=O)CC4)cn3)nc2n(C2CCCC2)c1=O (centres unmarked) | 50 to 200 nM
CC(=O)c1c(C)c2cnc(Nc3ccc(N4CCN(CCN5CCC(c6ccc7c(c6)C(=O)N(C6CCC(=O)NC6=O)C7=O)CC5)CC4)cn3)nc2n(C2CCCC2)c1=O (centres unmarked) | > 200 nM

// field: DC50; key: CC(=O)c1c(C)c2cnc(Nc3ccc(N4CCN(CC5CCN(C(=O)N6CCC(CN7CCN(c8ccc9c(c8)C(=O)N(C8CCC(=O)NC8=O)C9=O)CC7)CC6)CC5)CC4)cn3)nc2n(C2CCCC2)c1=O (centres unmarked) ; value = 50 to 200 nM

----------
DC50 values by entry
Biological target: CDK6 (Homo sapiens)
Construct: endogenous in cells
Assay: CDK6 degradation (DC50, Dmax)
Assay type: cell-based

molecule | DC50
CC(=O)c1c(C)c2cnc(Nc3ccc(N4CCN(C(=O)C5CN(c6ccc(NC7CCC(=O)NC7=O)cc6)C5)CC4)cn3)nc2n(C2CCCC2)c1=O (centres unmarked) [Compound 124] | 50 to 200 nM
Cc1nc2c(F)cc(-c3nc(Nc4ccc(CN5CCN(C6CCN(c7ccc(C(=O)NC8CCC(=O)NC8=O)cc7)CC6)CC5)cn4)ncc3F)cc2n1C(C)C (centres unmarked) [Compound 167] | 50 to 200 nM
CC(=O)c1c(C)c2cnc(Nc3ccc(N4CCN(CCC5CCN(c6ccc7c(c6)C(=O)N(C6CCC(=O)NC6=O)C7=O)CC5)CC4)cn3)nc2n(C2CCCC2)c1=O (centres unmarked) [Compound 69] | 50 to 200 nM

DC50 in this record for CC(=O)c1c(C)c2cnc(Nc3ccc(N4CCN(C(=O)N5CCC(CN6CCN(c7ccc8c(c7)C(=O)N(C7CCC(=O)NC7=O)C8=O)CC6)CC5)CC4)cn3)nc2n(C2CCCC2)c1=O (centres unmarked) [Compound 11] : 50 to 200 nM

The value of DC50 measured for the molecule CC(=O)c1c(C)c2cnc(Nc3ccc(N4CCN(C5CCN(C(=O)N6CCC(CCN7CCN(c8ccc9c(c8)C(=O)N(C8CCC(=O)NC8=O)C9=O)CC7)CC6)CC5)CC4)cn3)nc2n(C2CCCC2)c1=O (centres unmarked) [Compound 87] turned out to be 50 to 200 nM

# molecule Cc1nc2c(F)cc(-c3nc(Nc4ccc(CN5CCN(CC6CCN(c7ccc(C(=O)NC8CCC(=O)NC8=O)cc7)CC6)CC5)cn4)ncc3F)cc2n1C(C)C (centres unmarked) [Compound 151] ; its DC50 = 50 to 200 nM

Query Cc1nc2c(F)cc(-c3nc(Nc4ccc(CN5CCN(C(=O)C6CN(c7ccc(C(=O)NC8CCC(=O)NC8=O)cc7)C6)CC5)cn4)ncc3F)cc2n1C(C)C (centres unmarked) [Compound 137] yields DC50 of 50 to 200 nM

Per the records, this molecule ( CC(=O)c1c(C)c2cnc(Nc3ccc(N4CCN(C5CCN(C(=O)Nc6ccc7c(c6)CN(C6CCC(=O)NC6=O)C7=O)CC5)CC4)cn3)nc2n(C2CCCC2)c1=O (centres unmarked) [Compound 40] ) has DC50 equal to 50 to 200 nM

molecule CC(=O)c1c(C)c2cnc(Nc3ccc(N4CCN(CCNc5ccc6c(c5)CN(C5CCC(=O)NC5=O)C6=O)CC4)cn3)nc2n(C2CCCC2)c1=O (centres unmarked) [Compound 48] , DC50 observed: < 50 nM

Consider Cc1nc2c(F)cc(-c3nc(Nc4ccc(CN5CCN(CC6CN(c7ccc(NC8CCC(=O)NC8=O)cc7)C6)CC5)cn4)ncc3F)cc2n1C(C)C (centres unmarked) [Compound 134] . Its measured DC50 is < 50 nM

response.value for CC(=O)c1c(C)c2cnc(Nc3ccc(N4CCN(C(=O)C5CN(c6ccc7c(c6)CN(C6CCC(=O)NC6=O)C7=O)C5)CC4)cn3)nc2n(C2CCCC2)c1=O (centres unmarked) [Compound 122] (field: DC50) = < 50 nM

----------
A collection of molecules and their measured Dmax
Biological target: CDK4 (Homo sapiens)
Construct: endogenous in cells
Sequence (P11802 whole entry): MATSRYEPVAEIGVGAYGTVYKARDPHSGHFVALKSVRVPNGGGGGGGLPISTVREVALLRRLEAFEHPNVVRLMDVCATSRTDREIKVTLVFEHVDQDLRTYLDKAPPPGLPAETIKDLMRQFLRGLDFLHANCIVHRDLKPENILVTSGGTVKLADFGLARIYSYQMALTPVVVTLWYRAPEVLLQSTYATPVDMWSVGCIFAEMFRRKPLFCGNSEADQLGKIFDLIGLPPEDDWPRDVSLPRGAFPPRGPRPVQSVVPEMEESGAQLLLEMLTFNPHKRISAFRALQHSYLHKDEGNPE
Assay: CDK4 degradation (DC50, Dmax)
Type: cell-based

Some solved entries appear below for comparison.
molecule | test_result
CC(=O)c1c(C)c2cnc(Nc3ccc(N4CCN(C5CN(c6ccc(C(=O)NC7CCC(=O)NC7=O)cc6)C5)CC4)cn3)nc2n(C2CCCC2)c1=O (stereo not drawn) | > 80%
CC(=O)c1c(C)c2cnc(Nc3ccc(N4CCN(CCCN(C)c5cccc6c5C(=O)N(C5CCC(=O)NC5=O)C6=O)CC4)cn3)nc2n(C2CCCC2)c1=O (stereo not drawn) | > 60%
CC(=O)c1c(C)c2cnc(Nc3ccc(N4CCN(C5CCN(C(=O)N6CCC(c7ccc8c(c7)CN(C7CCC(=O)NC7=O)C8=O)CC6)CC5)CC4)cn3)nc2n(C2CCCC2)c1=O (stereo not drawn) | > 50%
Cc1nc2c(F)cc(-c3nc(Nc4ccc(CC5CCN(C(=O)C6CCN(c7ccc8c(c7)C(=O)N(C7CCC(=O)NC7=O)C8=O)CC6)CC5)cn4)ncc3F)cc2n1C(C)C (stereo not drawn) | > 60%
CC(=O)c1c(C)c2cnc(Nc3ccc(N4CCN(C(=O)N5CCC(CCN6CCC(c7ccc8c(c7)C(=O)N(C7CCC(=O)NC7=O)C8=O)CC6)CC5)CC4)cn3)nc2n(C2CCCC2)c1=O (stereo not drawn) | > 50%

Input Cc1nc2c(F)cc(-c3nc(Nc4ccc(CN5CCN(CC6CN(c7ccc8c(c7)C(=O)N(C7CCC(=O)NC7=O)C8=O)C6)CC5)cn4)ncc3F)cc2n1C(C)C (stereo not drawn) . Output Dmax: > 80%

What the record says about CC(=O)c1c(C)c2cnc(Nc3ccc(N4CCN(C(=O)C5CN(c6ccc(NC7CCC(=O)NC7=O)cc6)C5)CC4)cn3)nc2n(C2CCCC2)c1=O (stereo not drawn) : Dmax is > 80%

Item: Cc1nc2c(F)cc(-c3nc(Nc4ccc(CN5CCN(CC6CN(c7ccc8c(c7)CN(C7CCC(=O)NC7=O)C8=O)C6)CC5)cn4)ncc3F)cc2n1C(C)C (stereo not drawn) | Dmax: > 80%

Input CC(=O)c1c(C)c2cnc(Nc3ccc(N4CCN(CCCCNc5ccc6c(c5)CN(C5CCC(=O)NC5=O)C6=O)CC4)cn3)nc2n(C2CCCC2)c1=O (stereo not drawn) . Output Dmax: > 60%

Item: CC(=O)c1c(C)c2cnc(Nc3ccc(N4CCN(CC5CCN(c6ccc7c(c6)C(=O)N(C6CCC(=O)NC6=O)C7=O)CC5)CC4)cn3)nc2n(C2CCCC2)c1=O (stereo not drawn) | Dmax: > 80%

Given item Cc1nc2c(F)cc(-c3nc(Nc4ccc(CN5CCN(CCCNc6ccc7c(c6)C(=O)N(C6CCC(=O)NC6=O)C7=O)CC5)cn4)ncc3F)cc2n1C(C)C (stereo not drawn) , the value recorded as its Dmax is > 80%

Dmax reported for this molecule CC(=O)c1c(C)c2cnc(Nc3ccc(N4CCN(CCC5CCN(c6ccc7c(c6)CN(C6CCC(=O)NC6=O)C7=O)CC5)CC4)cn3)nc2n(C2CCCC2)c1=O (stereo not drawn) : > 50%

molecule CC(=O)c1c(C)c2cnc(Nc3ccc(C4CCN(CC5CN(c6ccc(NC7CCC(=O)NC7=O)cc6)C5)CC4)cn3)nc2n(C2CCCC2)c1=O (stereo not drawn) , Dmax observed: > 80%

The recorded Dmax for CC(=O)c1c(C)c2cnc(Nc3ccc(N4CCN(C(=O)N5CCC(CCN6CCN(c7ccc8c(c7)C(=O)N(C7CCC(=O)NC7=O)C8=O)CC6)CC5)CC4)cn3)nc2n(C2CCCC2)c1=O (stereo not drawn) is > 60%

Briefly, Dmax measured for Cc1nc2c(F)cc(-c3nc(Nc4ccc(CC5CCN(CC6CCN(c7ccc(NC8CCC(=O)NC8=O)cc7)CC6)CC5)cn4)ncc3F)cc2n1C(C)C (stereo not drawn) : > 80%

Record CC(=O)c1c(C)c2cnc(Nc3ccc(N4CCN(C(=O)N5CCC(C6CCN(c7ccc8c(c7)C(=O)N(C7CCC(=O)NC7=O)C8=O)CC6)CC5)CC4)cn3)nc2n(C2CCCC2)c1=O (stereo not drawn) . Reported Dmax: > 50%

The molecule CC(=O)c1c(C)c2cnc(Nc3ccc(N4CCN(C5CCN(C(=O)N6CCC(C7CCN(c8ccc9c(c8)C(=O)N(C8CCC(=O)NC8=O)C9=O)CC7)CC6)CC5)CC4)cn3)nc2n(C2CCCC2)c1=O (stereo not drawn) showed Dmax equal to > 60%

The reported Dmax of the molecule CC(=O)c1c(C)c2cnc(Nc3ccc(N4CCN(C(=O)N5CCC(CC6CCN(c7ccc8c(c7)C(=O)N(C7CCC(=O)NC7=O)C8=O)CC6)CC5)CC4)cn3)nc2n(C2CCCC2)c1=O (stereo not drawn) was > 60%

Entry Cc1nc2c(F)cc(-c3nc(Nc4ccc(CC5CCN(C6CCN(c7ccc8c(c7)C(=O)N(C7CCC(=O)NC7=O)C8=O)CC6)CC5)cn4)ncc3F)cc2n1C(C)C (stereo not drawn) , Dmax reported as > 80%

Field Dmax (entry CC(=O)c1c(C)c2cnc(Nc3ccc(C4CCN(C(=O)C5CN(c6ccc7c(c6)CN(C6CCC(=O)NC6=O)C7=O)C5)CC4)cn3)nc2n(C2CCCC2)c1=O (stereo not drawn) ) reads > 80%

Reported Dmax for CC(=O)c1c(C)c2cnc(Nc3ccc(N4CCN(C5CCN(C(=O)Nc6ccc7c(c6)C(=O)N(C6CCC(=O)NC6=O)C7=O)CC5)CC4)cn3)nc2n(C2CCCC2)c1=O (stereo not drawn) was > 80%
